Test system: NCI-H358
Test: relative viability (nuclei count vs DMSO), 5 days (fraction); higher = more cells survive
Details: first compound 20 µM
recordedMetric: relative viability
Reply with just the number.

See these solved cases before continuing.
• COCC1(CO)C(=O)C2CCN1CC2 (stereo not drawn) [PRIMA-1MET] + CS(=O)(=O)CCNCc1ccc(-c2ccc3ncnc(Nc4ccc(OCc5cccc(F)c5)c(Cl)c4)c3c2)o1 [Lapatinib] (partner 2 µM) = 0.0399
• COCC1(CO)C(=O)C2CCN1CC2 (stereo not drawn) [PRIMA-1MET] + Cc1nc(Nc2ncc(C(=O)Nc3c(C)cccc3Cl)s2)cc(N2CCN(CCO)CC2)n1 [Dasatinib] (partner 0.075 µM) = 0.0822
• COCC1(CO)C(=O)C2CCN1CC2 (stereo not drawn) [PRIMA-1MET] + Nc1ncn([C@H]2C[C@H](O)[C@@H](CO)O2)c(=O)n1 [Decitabine] (partner 2 µM) = 0.183

Recorded result, COCC1(CO)C(=O)C2CCN1CC2 (stereo not drawn) [PRIMA-1MET] + C[C@@H](Oc1cc(-c2cnn(C3CCNCC3)c2)cnc1N)c1c(Cl)ccc(F)c1Cl [Crizotinib] (partner 1 µM) , relative viability: 0.152

Recorded result, COCC1(CO)C(=O)C2CCN1CC2 (stereo not drawn) [PRIMA-1MET] + CC(=O)Nc1cccc(-n2c(=O)n(C3CC3)c(=O)c3c(Nc4ccc(I)cc4F)n(C)c(=O)c(C)c32)c1 [Trametinib] (partner 0.02 µM) , relative viability: 0.0807

Recorded result, COCC1(CO)C(=O)C2CCN1CC2 (stereo not drawn) [PRIMA-1MET] + Cc1cc(Nc2cc(N3CCN(C)CC3)nc(Sc3ccc(NC(=O)C4CC4)cc3)n2)n[nH]1 [Tozasertib] (partner 0.1 µM) , relative viability: 0.0866

Recorded result, COCC1(CO)C(=O)C2CCN1CC2 (stereo not drawn) [PRIMA-1MET] + Cc1nc(NC(=O)N2CCC[C@H]2C(N)=O)sc1-c1ccnc(C(C)(C)C(F)(F)F)c1 [Alpelisib] (partner 2 µM) , relative viability: 0.0962

Recorded result, COCC1(CO)C(=O)C2CCN1CC2 (stereo not drawn) [PRIMA-1MET] + Nc1nc2[nH]cc(CCc3ccc(C(=O)N[C@@H](CCC(=O)O)C(=O)O)cc3)c2c(=O)[nH]1 [Pemetrexed] (partner 0.2 µM) , relative viability: 0.198

----------
Test system: NCI-H1666
Assay: relative viability (nuclei count vs DMSO), 5 days (fraction); higher = more cells survive
Details: first compound 0.1 µM
Catalogue of relative viability values
Reply with just the number.

* O=c1cc(N2CCOCC2)oc2c(-c3cccc4c3sc3ccccc34)cccc12 + O=C(CCCCCCC(=O)Nc1ccccc1)NO [Vorinostat] (partner 1 µM) | 1.19
* O=c1cc(N2CCOCC2)oc2c(-c3cccc4c3sc3ccccc34)cccc12 + COc1cccc2cc(-c3nc([C@H]4CC[C@H](C(=O)O)CC4)n4ncnc(N)c34)[nH]c12 [OSI-027] (partner 0.5 µM) | 0.847
* O=c1cc(N2CCOCC2)oc2c(-c3cccc4c3sc3ccccc34)cccc12 + CC1(C)CCC(c2ccc(Cl)cc2)=C(CN2CCN(c3ccc(C(=O)NS(=O)(=O)c4ccc(N[C@H](CCN5CCOCC5)CSc5ccccc5)c(S(=O)(=O)C(F)(F)F)c4)cc3)CC2)C1 [Navitoclax] (partner 0.5 µM) | 0.819

Here is the next item to consider.
Recorded result, CCN(CC)CCCCNc1ncc2cc(-c3cc(OC)cc(OC)c3)c(NC(=O)NC(C)(C)C)nc2n1 + NC(=O)Nc1cc(-c2cccc(F)c2)sc1C(=O)N[C@H]1CCCNC1 [AZD7762] (partner 0.2 µM) , relative viability: 0.889

----------
System: UMC-11
Assay: relative viability (nuclei count vs DMSO), 5 days (fraction); higher = more cells survive
Conditions: first compound 0.08 µM
recordedMetric: relative viability
Reply with just the number.

See these solved cases before continuing.
- O=c1cc(-c2cccc3c2Sc2ccccc2S3)oc(N2CCOCC2)c1 + CC(=O)Nc1cccc(-n2c(=O)n(C3CC3)c(=O)c3c(Nc4ccc(I)cc4F)n(C)c(=O)c(C)c32)c1 [Trametinib] (partner 0.02 µM): 0.719
- O=c1cc(-c2cccc3c2Sc2ccccc2S3)oc(N2CCOCC2)c1 + Cc1nc(NC(=O)N2CCC[C@H]2C(N)=O)sc1-c1ccnc(C(C)(C)C(F)(F)F)c1 [Alpelisib] (partner 2 µM): 0.965
- O=c1cc(-c2cccc3c2Sc2ccccc2S3)oc(N2CCOCC2)c1 + CC1(C)CCC(c2ccc(Cl)cc2)=C(CN2CCN(c3ccc(C(=O)NS(=O)(=O)c4ccc(N[C@H](CCN5CCOCC5)CSc5ccccc5)c(S(=O)(=O)C(F)(F)F)c4)cc3)CC2)C1 [Navitoclax] (partner 0.5 µM): 0.326

Recorded result, O=c1cc(-c2cccc3c2Sc2ccccc2S3)oc(N2CCOCC2)c1 + CS(=O)(=O)N1CCN(Cc2cc3nc(-c4cccc5[nH]ncc45)nc(N4CCOCC4)c3s2)CC1 [Pictilisib] (partner 1 µM) , relative viability: 0.815

----------
Catalogue of relative viability values
System: LK-2
Assay: relative viability (nuclei count vs DMSO), 5 days (fraction); higher = more cells survive
Settings: first compound 0.03162 µM
Reply with just the number.

• CCN(CC)CCCCNc1ncc2cc(-c3cc(OC)cc(OC)c3)c(NC(=O)NC(C)(C)C)nc2n1 + Nc1nc2[nH]cc(CCc3ccc(C(=O)N[C@@H](CCC(=O)O)C(=O)O)cc3)c2c(=O)[nH]1 [Pemetrexed] (partner 0.2 µM) = 0.272
• O=c1cc(N2CCOCC2)oc2c(-c3cccc4c3sc3ccccc34)cccc12 + O=C(CCCCCCC(=O)Nc1ccccc1)NO [Vorinostat] (partner 1 µM) = 0.267
• O=c1cc(N2CCOCC2)oc2c(-c3cccc4c3sc3ccccc34)cccc12 + COc1cccc2cc(-c3nc([C@H]4CC[C@H](C(=O)O)CC4)n4ncnc(N)c34)[nH]c12 [OSI-027] (partner 0.5 µM) = 0.361
• CCN(CC)CCCCNc1ncc2cc(-c3cc(OC)cc(OC)c3)c(NC(=O)NC(C)(C)C)nc2n1 + NC(=O)Nc1cc(-c2cccc(F)c2)sc1C(=O)N[C@H]1CCCNC1 [AZD7762] (partner 0.2 µM) = 0.394

Here is the next item to consider.
Recorded result, O=c1cc(N2CCOCC2)oc2c(-c3cccc4c3sc3ccccc34)cccc12 + CC(=O)c1c(C)c2cnc(Nc3ccc(N4CCNCC4)cn3)nc2n(C2CCCC2)c1=O [Palbociclib] (partner 0.5 µM) , relative viability: 0.768

----------
Tested on: H3255
Experiment: relative viability (nuclei count vs DMSO), 5 days (fraction); higher = more cells survive
Conditions: first compound 0.08 µM
recordedMetric: relative viability

See these solved cases before continuing.
* O=c1cc(-c2cccc3c2Sc2ccccc2S3)oc(N2CCOCC2)c1 + CS(=O)(=O)CCNCc1ccc(-c2ccc3ncnc(Nc4ccc(OCc5cccc(F)c5)c(Cl)c4)c3c2)o1 [Lapatinib] (partner 2 µM) | 0.239
* O=c1cc(-c2cccc3c2Sc2ccccc2S3)oc(N2CCOCC2)c1 + Cc1nc(NC(=O)N2CCC[C@H]2C(N)=O)sc1-c1ccnc(C(C)(C)C(F)(F)F)c1 [Alpelisib] (partner 2 µM) | 0.631
* COc1nc(C)cnc1NS(=O)(=O)c1cccnc1-c1ccc(-c2nnco2)cc1 [Zibotentan] + O=C(CCCCCCC(=O)Nc1ccccc1)NO [Vorinostat] (partner 1 µM) | 0.926
* O=c1cc(-c2cccc3c2Sc2ccccc2S3)oc(N2CCOCC2)c1 + N=C(N)NC(=N)NCCc1ccccc1 [Phenformin] (partner 250 µM) | 0.323

Here is the next item to consider.
Recorded result, COc1nc(C)cnc1NS(=O)(=O)c1cccnc1-c1ccc(-c2nnco2)cc1 [Zibotentan] + Nc1nc2[nH]cc(CCc3ccc(C(=O)N[C@@H](CCC(=O)O)C(=O)O)cc3)c2c(=O)[nH]1 [Pemetrexed] (partner 0.2 µM) , relative viability: 0.635

----------
System: NCI-H647
Experiment: relative viability (nuclei count vs DMSO), 5 days (fraction); higher = more cells survive
Settings: first compound 0.01 µM
Catalogue of relative viability values

• CCN(CC)CCCCNc1ncc2cc(-c3cc(OC)cc(OC)c3)c(NC(=O)NC(C)(C)C)nc2n1 + N=C(N)NC(=N)NCCc1ccccc1 [Phenformin] (partner 250 µM) = 0.451
• CCN(CC)CCCCNc1ncc2cc(-c3cc(OC)cc(OC)c3)c(NC(=O)NC(C)(C)C)nc2n1 + CCNC(=O)c1noc(-c2cc(C(C)C)c(O)cc2O)c1-c1ccc(CN2CCOCC2)cc1 [Luminespib] (partner 0.01 µM) = 0.163
• CCN(CC)CCCCNc1ncc2cc(-c3cc(OC)cc(OC)c3)c(NC(=O)NC(C)(C)C)nc2n1 + Nc1nc2[nH]cc(CCc3ccc(C(=O)N[C@@H](CCC(=O)O)C(=O)O)cc3)c2c(=O)[nH]1 [Pemetrexed] (partner 0.2 µM) = 0.188
• O=c1cc(N2CCOCC2)oc2c(-c3cccc4c3sc3ccccc34)cccc12 + O=C(c1cc(Cc2n[nH]c(=O)c3ccccc23)ccc1F)N1CCN(C(=O)C2CC2)CC1 [Olaparib] (partner 8 µM) = 0.538
• O=c1cc(N2CCOCC2)oc2c(-c3cccc4c3sc3ccccc34)cccc12 + CS(=O)(=O)N1CCN(Cc2cc3nc(-c4cccc5[nH]ncc45)nc(N4CCOCC4)c3s2)CC1 [Pictilisib] (partner 1 µM) = 0.437
• CCN(CC)CCCCNc1ncc2cc(-c3cc(OC)cc(OC)c3)c(NC(=O)NC(C)(C)C)nc2n1 + C[C@]1(O)C[C@@H](c2nc(-c3ccc4ccc(-c5ccccc5)nc4c3)c3c(N)nccn32)C1 [Linsitinib] (partner 1 µM) = 1.31
• CCN(CC)CCCCNc1ncc2cc(-c3cc(OC)cc(OC)c3)c(NC(=O)NC(C)(C)C)nc2n1 + CS(=O)(=O)CCNCc1ccc(-c2ccc3ncnc(Nc4ccc(OCc5cccc(F)c5)c(Cl)c4)c3c2)o1 [Lapatinib] (partner 2 µM) = 1.22
• O=c1cc(N2CCOCC2)oc2c(-c3cccc4c3sc3ccccc34)cccc12 + CC(C)C[C@H](NC(=O)[C@H](Cc1ccccc1)NC(=O)c1cnccn1)B(O)O [Bortezomib] (partner 0.002 µM) = 1.01

Recorded result, CCN(CC)CCCCNc1ncc2cc(-c3cc(OC)cc(OC)c3)c(NC(=O)NC(C)(C)C)nc2n1 + CC(C)C[C@H](NC(=O)[C@H](Cc1ccccc1)NC(=O)c1cnccn1)B(O)O [Bortezomib] (partner 0.002 µM) , relative viability: 1.02

From: the supplement of paper PMC10307832
